assay_metric: melting point

Some molecules with known melting point results, for comparison:
{"molecule": "CCC(=O)N1CCC2CCC(C1)N2CC=C(c1ccccc1)c1ccccc1 (stereo not drawn)", "melting point": "176 to 177 °C"}
{"molecule": "CCC(=O)N1CCC2CCCC(C1)N2C/C=C(\\C)c1ccc(Cl)c(Cl)c1 (stereo not drawn)", "melting point": "184 to 185 °C"}
{"molecule": "CCC(=O)N1CCC2CCCC(C1)N2C/C=C(\\C)c1ccccc1 (stereo not drawn)", "melting point": "106 to 108 °C"}

**Query** # melting point lookup, item CCC(=O)N1CCC2CCCC(C1)N2CC=C(c1ccccc1)c1ccccc1 (stereo not drawn)
**Result** 137 to 139 °C

====

// values below are reported melting point

Answered cases to consult:
{"compound": "CCC(=O)N1C2CCC1CN(CC=C(c1ccccc1)c1ccccc1)CC2 (centres unmarked)", "melting point": "184 to 186 °C"}
{"compound": "CCC(=O)N1C2CCCC1CN(C/C=C(\\C)c1ccc(Cl)c(Cl)c1)CC2 (centres unmarked)", "melting point": "175 to 176 °C"}
{"compound": "CCC(=O)N1C2CCC1CN(C/C=C(\\C)c1ccccc1)CC2 (centres unmarked)", "melting point": "228 to 230 °C"}
{"compound": "CCC(=O)N1CCC2CCC(C1)N2C/C=C(\\C)c1ccccc1 (centres unmarked)", "melting point": "230 to 232 °C"}

**Query** Consider the compound shown here: CCC(=O)N1C2CCCC1CN(C/C=C(\C)c1ccccc1)CC2 (centres unmarked) What is its recorded melting point?
**Result** 144 to 146 °C

====

Known melting point of a selection of compounds

Past entries and their recorded results:
{"compound": "CCC(=O)N1CCC2CCC(C1)N2C/C=C(\\C)c1ccc(Cl)c(Cl)c1 (stereo not drawn)", "value_reported": "188 to 189 °C"}
{"compound": "CCC(=O)N1C2CCCC1CN(CC=C(c1ccccc1)c1ccccc1)CC2 (stereo not drawn)", "value_reported": "169 to 170 °C"}

Could you now consider this next compound?
**Query** Form field: reported melting point of CCC(=O)N1C2CCC1CN(C/C=C(\C)c1ccc(Cl)c(Cl)c1)CC2 (stereo not drawn)
**Result** 186 to 188 °C
